Biological target: kinases (Homo sapiens, UniProt P00533, L858R)
Construct: purchased Eurofins/DiscoveRx; host or cells: E. coli BL21-derived host (T7 phage display) for most kinases; HEK-293 for the rest
Assay: KINOMEscan kinase binding assay (Eurofins/DiscoveRx), % Ctrl
Details: 1 μM; EGFR(L858R)
Observation Type: % Ctrl, EGFR(L858R) (% Ctrl)
Note: unit % Ctrl is implicit; provide only the numeric part.

# annotated cases, reported % Ctrl, EGFR(L858R) shown
Cc1cc2c([nH]1)/C=C1\C(=O)Nc3ccc(cc31)OCCOCCNC2=O 100
Cc1cc2c([nH]1)/C=C1\C(=O)Nc3cc(Cl)c(cc31)OCCO[C@@H](C(=O)NC1CNC1)CN(C)C2=O 95
Cc1cc2c([nH]1)/C=C1\C(=O)Nc3cc(Cl)c(cc31)OCCO[C@@H](C(=O)N(C)C)CN(C)C2=O 99

What does the record list as % Ctrl, EGFR(L858R) for `Cc1cc2c([nH]1)/C=C1\C(=O)Nc3ccc(cc31)-c1ccnn1CCOCCN(C)C2=O` ? 93

Consider next the compound `Cc1cc2c([nH]1)/C=C1\C(=O)Nc3ccc(cc31)-c1ccnn1CCOCCNC2=O` in the same way. 64
